# tgt: rat nerve growth factor (beta-NGF) (rat, UniProt P25427 122-241)
# Sequence (P25427 122-241): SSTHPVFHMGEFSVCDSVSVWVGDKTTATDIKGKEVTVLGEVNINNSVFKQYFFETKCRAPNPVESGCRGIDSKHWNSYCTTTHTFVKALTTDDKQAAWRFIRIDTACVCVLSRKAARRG
# assayInfo: cell-based or functional assay
Give measured IC50, PC12 cell survival for each item. Keep answers brief.
Answers are plain numbers, in nM.

binder	measuredEndpoint	valueUnits	resultNumber
1230D8 human IgG4 (antibody, V domains shown) VH: QMQLVQSGAEVKKTGSSVKVSCKASGYTFPYHYLHWVRQAPGQGLEWMGGIIPIFGTTNYAQRFQDRVTITADESTSTAYMEFSSLRSEDTAVYYCASADYVWESYHPATSLSLWGRGTMVTVSS VL: QSVLTQPPSVSAAPGQKVTISCPGSTSNIGNNYVSWYQQRPGKAPKLMIYDVSKRPSGVPDRFSGSKSGNSASLDISELQSEDEADYYCAAWDDSLSEFLFGTGTKLTVL	IC50, PC12 cell survival	nM	37
1133C11 human IgG4 (antibody, V domains shown) VH: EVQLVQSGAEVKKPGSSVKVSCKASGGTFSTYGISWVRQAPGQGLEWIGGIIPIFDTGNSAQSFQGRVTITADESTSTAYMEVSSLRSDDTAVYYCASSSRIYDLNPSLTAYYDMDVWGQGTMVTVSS VL: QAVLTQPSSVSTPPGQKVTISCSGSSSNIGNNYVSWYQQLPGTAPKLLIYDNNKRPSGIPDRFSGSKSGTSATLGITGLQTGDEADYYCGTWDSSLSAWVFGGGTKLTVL	IC50, PC12 cell survival	nM	0.42

Query binder follows.
Fill in: IC50, PC12 cell survival of 1230H7 human IgG4 (antibody, V domains shown) VH: EMQLVQSGAEVKKPGSSVKVSCKASGGTFSTYGISWVRQAPGQGLEWIGGIIPIFDTGNSAQSFQGRVTITADESTSTAYMEVSSLRSDDTAVYYCASSSRIYDFNSALISYYDMDVWGQGTMVTVSS VL: QAVLTQPSSVSTPPGQKVTISCSGSSSNIGNNYVSWYQQLPGTAPKLLIYDNNKRPSGIPDRFSGSKSGTSATLGITGLQTGDEADYYCGTWDSSLSAWVFGGGTKLTV is ___
0.32
